test system: K. pneumoniae NVT1001 strains with ESBL or AmpC β-lactamase plasmids; assay: Etest MIC of β-lactams, OmpK35/36 loss, ΔramR and/or extended-spectrum β-lactamase and AmpC β-lactamase (Table 8); type: cell-based, Klebsiella pneumoniae; settings: Klebsiella pneumoniae, CTX-M-15 on pACYC177; Δ35 (ΔompK35 mutant)
parameter: MIC (µg/mL)

[
  {
    "molecule": "C[C@@H](O)[C@H]1C(=O)N2C(C(=O)O)=C(S[C@@H]3CN[C@H](C(=O)N(C)C)C3)[C@H](C)[C@H]12 [Meropenem]",
    "system_under_test": "K. pneumoniae NVT1001 strains with ESBL or AmpC β-lactamase plasmids",
    "parameter": "MIC",
    "unit_of_measurement": "µg/mL",
    "qual": "=",
    "result_value": 0.25
  },
  {
    "molecule": "CC(C)(O/N=C(\\C(=O)N[C@@H]1C(=O)N2C(C(=O)[O-])=C(C[n+]3ccccc3)CS[C@H]12)c1csc(N)n1)C(=O)O [Ceftazidime]",
    "system_under_test": "K. pneumoniae NVT1001 strains with ESBL or AmpC β-lactamase plasmids",
    "parameter": "MIC",
    "unit_of_measurement": "µg/mL",
    "qual": ">",
    "result_value": 256
  },
  {
    "molecule": "C[C@@H](O)[C@H]1C(=O)N2C(C(=O)O)=C(S[C@@H]3CN[C@H](CNS(N)(=O)=O)C3)[C@H](C)[C@H]12 [Doripenem]",
    "system_under_test": "K. pneumoniae NVT1001 strains with ESBL or AmpC β-lactamase plasmids",
    "parameter": "MIC",
    "unit_of_measurement": "µg/mL",
    "qual": "=",
    "result_value": 0.125
  },
  {
    "molecule": "CCO/N=C(\\C(=O)N[C@@H]1C(=O)N2C(C(=O)[O-])=C(Sc3nc(-c4cc[n+](C)cc4)cs3)CS[C@H]12)c1nsc(N)n1 [Ceftaroline]",
    "system_under_test": "K. pneumoniae NVT1001 strains with ESBL or AmpC β-lactamase plasmids",
    "parameter": "MIC",
    "unit_of_measurement": "µg/mL",
    "qual": ">",
    "result_value": 256
  },
  {
    "molecule": "C[C@@H](O)[C@H]1C(=O)N2C(C(=O)O)=C(S[C@@H]3CN[C@H](C(=O)Nc4cccc(C(=O)O)c4)C3)[C@H](C)[C@H]12 [Ertapenem]",
    "system_under_test": "K. pneumoniae NVT1001 strains with ESBL or AmpC β-lactamase plasmids",
    "parameter": "MIC",
    "unit_of_measurement": "µg/mL",
    "qual": "=",
    "result_value": 0.5
  },
  {
    "molecule": "CO/N=C(\\C(=O)N[C@@H]1C(=O)N2C(C(=O)O)=C(COC(N)=O)CS[C@H]12)c1ccco1 [Cefuroxime]",
    "system_under_test": "K. pneumoniae NVT1001 strains with ESBL or AmpC β-lactamase plasmids",
    "parameter": "MIC",
    "unit_of_measurement": "µg/mL",
    "qual": ">",
    "result_value": 256
  }
]

###

System: K. pneumoniae NVT1001 and its GyrA/ParC and ΔramR mutants
Assay: Etest MIC of quinolones, GyrA/ParC mutations and AcrAB-TolC overexpression (ΔramR) (Table 10)
Format: cell-based
Settings: Klebsiella pneumoniae, S83Y/D87N/S80I mutant
Experimental: DNA fragments of the entire gyrA and parC sequences along with their flanking regions were amplified from K. pneumoniae strain NVT1001 using PCR with specific primer pairs and then cloned into the plasmid pUT-KB. […] The MICs of antibiotics were determined using the Etest (Biodisk AB, Sweden) according to the manufacturer's instructions. […]
# maps each entry to its MIC

[
  {
    "molecule": "CCn1cc(C(=O)O)c(=O)c2cc(F)c(N3CCNCC3)cc21",
    "qual": "=",
    "MIC / µg/mL": 32
  },
  {
    "molecule": "CC1COc2c(N3CCN(C)CC3)c(F)cc3c(=O)c(C(=O)O)cn1c23 (centres unmarked)",
    "qual": "=",
    "MIC / µg/mL": 16
  },
  {
    "molecule": "COc1c(N2C[C@@H]3CCCN[C@@H]3C2)c(F)cc2c(=O)c(C(=O)O)cn(C3CC3)c12",
    "qual": "=",
    "MIC / µg/mL": 32
  },
  {
    "molecule": "CCn1cc(C(=O)O)c(=O)c2ccc(C)nc21",
    "qual": ">",
    "MIC / µg/mL": 256
  },
  {
    "molecule": "C[C@H]1COc2c(N3CCN(C)CC3)c(F)cc3c(=O)c(C(=O)O)cn1c23",
    "qual": "=",
    "MIC / µg/mL": 4
  }
]

Attribution: patent US10760110B2
